Biological target: T1, mouse glucagon receptor (mouse, UniProt Q61606 28-485)
T1 construct: Cloned receptor expressed in 293HEK cells; also called murine GluR; mouse GlucR
T1 chain: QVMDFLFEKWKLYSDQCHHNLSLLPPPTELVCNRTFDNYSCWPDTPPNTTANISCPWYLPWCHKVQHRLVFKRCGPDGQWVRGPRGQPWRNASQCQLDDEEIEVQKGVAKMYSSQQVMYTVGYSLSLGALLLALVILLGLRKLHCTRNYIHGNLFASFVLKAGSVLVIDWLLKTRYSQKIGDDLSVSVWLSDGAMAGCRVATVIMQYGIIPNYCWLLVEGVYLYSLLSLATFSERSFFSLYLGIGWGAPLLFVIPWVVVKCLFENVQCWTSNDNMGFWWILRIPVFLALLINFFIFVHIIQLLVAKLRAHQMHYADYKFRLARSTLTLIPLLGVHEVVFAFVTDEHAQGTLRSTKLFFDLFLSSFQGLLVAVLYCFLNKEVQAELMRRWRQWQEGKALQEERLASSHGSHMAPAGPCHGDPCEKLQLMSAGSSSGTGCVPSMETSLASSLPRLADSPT
Assay: competition with [125I]glucagon, SPA, membranes of 293HEK cells expressing the receptor
REPORTED_METRIC: Ki

Antibody of example 7 (Ab7) (antibody, human IgG4 S228P, kappa, F234A L235A, V domains shown, Humanized full antibody with kappa light chain and modified human IgG4 Fc) VH: QVQLQESGPGLVKPSETLSLTCTVSGDDITSGYHEWIRQPPGKGLEWIGYISYSGSTSYSPSLKSRVTISVDTSKNQFSLKLSSVTAADTAVYYCARPPAYYGFGPYALDYWGQGTLVTVSS VL: DIQMTQSPSSLSASVGDRVTITCSASSSVSYIHWYQQKPGKAPKLLIYTTSYLAHGVPSRFSGSGSGTDFTLTISSLQPEDFATYYCQQRSTLPPTFGGGTKVEIKR : < 50 nM
